Data provenance: patent US9085576B2

Target: Beta Secretase enzyme (BACE) (Homo sapiens (Human))
Sequence (P56817 46-501): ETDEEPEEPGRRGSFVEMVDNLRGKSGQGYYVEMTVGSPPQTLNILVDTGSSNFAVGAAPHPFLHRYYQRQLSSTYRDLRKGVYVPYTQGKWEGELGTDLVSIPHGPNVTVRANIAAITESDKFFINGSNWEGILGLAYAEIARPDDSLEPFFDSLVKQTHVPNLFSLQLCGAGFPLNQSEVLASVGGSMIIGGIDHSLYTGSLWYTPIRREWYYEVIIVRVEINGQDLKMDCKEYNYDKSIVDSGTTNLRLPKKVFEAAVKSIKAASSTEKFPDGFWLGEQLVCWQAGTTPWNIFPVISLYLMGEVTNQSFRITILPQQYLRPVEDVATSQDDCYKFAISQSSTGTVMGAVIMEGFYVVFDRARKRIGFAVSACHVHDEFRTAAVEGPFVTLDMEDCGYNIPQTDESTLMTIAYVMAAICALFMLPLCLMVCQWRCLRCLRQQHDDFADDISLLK
Assay: In vitro enzymatic BACE FRET assay
Format: biochemical
Settings: read-out: BACE1 Enzyme assay IC50
pIC50: −log10 of the molar value.
Binary call on pIC50: 1 (yes) from 7 upward, 0 (no) beneath that.

Here are 2 compounds together with their reported answers.
• COc1cnc(C(=O)Nc2ccc(F)c([C@@]3(C)N=C(N)O[C@@H]4C[C@@H]43)n2)cn1 = 0 (no)
• NC1=N[C@@](c2cc(NC(=O)c3nn(C(F)F)cc3Cl)cc(F)c2F)(C(F)F)[C@H]2C[C@H]2O1 [Example 114] = 1 (yes)

Query: Could you please find out whether COCCC(=O)Nc1ccc(F)c([C@@]2(C(F)F)N=C(N)O[C@@H]3C[C@@H]32)c1 has pIC50 that meets 7 or exceeds it?
Result: 0 (no)

Query: Could you please find out whether N=C1N[C@](CF)(c2cc(-c3cncc(F)c3)c(CO)cc2F)[C@H]2CC2O1 (some centres unmarked) has pIC50 that meets 7 or exceeds it?
Result: 0 (no)

Query: Could you please find out whether NC1=N[C@@](c2cc(NC(=O)[C@H]3CCCO3)ccc2F)(C(F)F)[C@H]2C[C@H]2O1 (mixture of isomers) has pIC50 that meets 7 or exceeds it?
Result: 0 (no)

Query: Could you please find out whether Cc1cc(C#N)cnc1C(=O)Nc1cc(F)c(Cl)c([C@@]2(CF)N=C(N)O[C@@H]3C[C@@H]32)c1 has pIC50 that meets 7 or exceeds it?
Result: 1 (yes)

Query: Could you please find out whether COC[C@]1(c2cc(NC(=O)c3ccc(Cl)cn3)ccc2F)N=C(N)O[C@@H]2C[C@@H]21 has pIC50 that meets 7 or exceeds it?
Result: 0 (no)

Query: Could you please find out whether NC1=N[C@@](c2cc(NC(=O)CC3CCCCC3)ccc2F)(C(F)F)[C@H]2C[C@H]2O1 has pIC50 that meets 7 or exceeds it?
Result: 0 (no)

Query: Could you please find out whether NC1=N[C@](CF)(c2cc(NC(=O)c3nn(C(F)F)cc3Cl)cc(F)c2F)[C@H]2C[C@H]2O1 has pIC50 that meets 7 or exceeds it?
Result: 1 (yes)

Query: Could you please find out whether CC#CCOc1ccc(C(=O)Nc2ccc(F)c([C@@]3(C(F)F)N=C(N)O[C@@H]4C[C@@H]43)c2)nc1 has pIC50 that meets 7 or exceeds it?
Result: 1 (yes)
